Target: UniProt:O60341
measuredProperty: IC50

CN(C)C1CCN(c2nc(-c3ccc(C#N)cc3)c(-c3ccc(CN4CCOCC4)c(F)c3)c3nccn23)CC1    ≤ 50 nM
Cc1ccc(-c2c(-c3ccc(C#N)cc3)nc(OC[C@@H]3CCN(C)C3)n3ccnc23)cc1    50 to 500 nM

Please examine the following record next.
Query for UniProt:O60341: what IC50 does the record show for CN(C)C(=O)N(C)Cc1ccc(-c2c(-c3ccc(C#N)cc3)nc(N3CCC(N(C)C)CC3)n3ccnc23)cc1F ?
≤ 50 nM

###

So I've got pIC50 readings for LSD-1 enzyme (Homo sapiens (Human)), take a look.
pIC50: −log10 of the molar value.

Sample answers from the record:
CN1CCC[C@@H](COc2nc(-c3ccc(C#N)cc3)c(-c3ccc4c(c3)OC(=O)N(C)C4)c3nccn23)C1    ≥ 7.30
CN(C)C1CCN(c2nc(-c3ccc(C#N)cc3)c(-c3ccc4c(cnn4C)c3)c3nccn23)CC1    ≥ 7.30
CN1C(=O)COc2cc(-c3c(-c4ccc(C#N)cc4)nc(N4CCC(N(C)C)CC4)n4ccnc34)ccc21    ≥ 7.30

Quick check: pIC50 of CN1CCC[C@@H](COc2nc(-c3ccc(C#N)cc3)c(-c3cnc4c(c3)oc(=O)n4C)c3nccn23)C1 ?
6.30 to 7.30

###

So I've got IC50 readings for LSD-1 enzyme (Homo sapiens (Human), UniProt O60341), take a look.

Sample answers from the record:
Cc1ccc(-c2c(-c3ccc(C#N)cc3)nc(N3CCC(N(C)C)CC3)n3ccnc23)cn1    50 to 500 nM
CN1CCC[C@@H](COc2nc(-c3ccc(C#N)cc3)c(-c3ccc(N4CCCC4=O)nc3)c3nccn23)C1    50 to 500 nM
C[C@@H](O)CN1CCC[C@@H](COc2nc(-c3ccc(C#N)cc3)c(-c3cnc4c(cnn4C)c3)c3nccn23)C1    50 to 500 nM

Quick check: IC50 of CN(C)C1CCN(c2nc(-c3ccc(C#N)cc3)c(-c3ccc(N4CCCC4=O)nc3)c3nccn23)CC1 ?
50 to 500 nM

Quick check: IC50 of CN1CCC[C@@H](COc2nc(-c3ccc(C#N)cc3)c(-c3ccc(CO)c(F)c3)c3nccn23)C1 ?
≤ 50 nM

Quick check: IC50 of CN1CCC[C@@H](COc2nc(-c3ccc(C#N)cc3)c(-c3ccc4c(c3)oc(=O)n4C)c3nccn23)C1 ?
≤ 50 nM

Quick check: IC50 of CN1CCC[C@@H](COc2nc(-c3ccc(C#N)cc3)c(-c3ccc4c(c3)N(C)C(=O)CC4)c3nccn23)C1 ?
50 to 500 nM

###

Target: UniProt:O60341
pIC50: −log10 of the molar value.
measuredProperty: pIC50

Sample answers from the record:
COCCN1CCC[C@@H](COc2nc(-c3ccc(C#N)cc3)c(-c3cnc4c(cnn4C)c3)c3nccn23)C1    ≥ 7.30
C[C@@H](O)CN1CCC[C@@H](COc2nc(-c3ccc(C#N)cc3)c(-c3ccc4c(c3)oc(=O)n4C)c3nccn23)C1    6.30 to 7.30
CN(C)C1CCN(c2nc(-c3ccc(C#N)cc3)c(-c3ccc4c(c3)oc(=O)n4C)c3nccn23)CC1    ≥ 7.30
Cn1ncc2cc(-c3c(-c4ccc(C#N)cc4)nc(OC[C@@H]4CCCN(CC(C)(C)O)C4)n4ccnc34)cnc21    6.30 to 7.30
CN1CCC[C@@H](COc2nc(-c3ccc(C#N)cc3)c(-c3cnc4c(ccn4C)c3)c3nccn23)C1    ≥ 7.30
CN1CCC[C@@H](COc2nc(-c3ccc(C#N)cc3)c(-c3ccc4c(c3)ncn4C)c3nccn23)C1    ≥ 7.30

Query for UniProt:O60341: what pIC50 does the record show for CN(C)C1CCN(c2nc(-c3ccc(C#N)cc3)c(-c3ccc4nccnc4c3)c3nccn23)CC1 ?
6.30 to 7.30
